The measurements presented in this section are drawn from the array DNA melting data of Ke et al. (doi:10.1101/2024.01.08.574731).

# ASSAY_PROCEDURE: melting temperature; fluorescence melt of hairpins on a sequencing array, two-state fit, raised by 9.35 °C to match UV melts
# ASSAY_CONDITIONS: sodium 0.088 M
PROPERTY_MEASURED: Tm (°C)
Give the quantity in °C, number only.

Per the records, this sequence ( GGTTGCGAAAGCAGTACC ((((((....)))..))) ) has Tm equal to 43.3

Per the records, this sequence ( GATCCTATACAGGATC ((((((....)))))) ) has Tm equal to 52.4

Per the records, this sequence ( GTAGGGCGAAAGCCGTAC (((.(((....))).))) ) has Tm equal to 56.8

Per the records, this sequence ( GGATGCGAAAGCATATCC ((((((....)))..))) ) has Tm equal to 43.8

Per the records, this sequence ( GCTTAACCGAAAGGTAGC (((..(((....)))))) ) has Tm equal to 42.2

Per the records, this sequence ( GTGCCGGGAAACCAGCAC ((((.((....)).)))) ) has Tm equal to 50.1

Per the records, this sequence ( GCTTTGCGAAAGCACGGC ((..(((....)))..)) ) has Tm equal to 41.7

Per the records, this sequence ( GGACTTGGAAACAGGTCC ((((.((....)).)))) ) has Tm equal to 49.4

Per the records, this sequence ( GTGAGCGGAAACGCTTGC (..((((....))))..) ) has Tm equal to 43.8

###

# ASSAY_PROCEDURE: folding enthalpy; higher = less favourable; fluorescence melt of hairpins on a sequencing array, two-state fit
# ASSAY_CONDITIONS: sodium 0.088 M
Think of -30 kcal/mol as a floor: if folding enthalpy stands on it or above, it is met; beneath it, not met.

Request: Entry GCGTAATACGC ((((...)))) : is its folding enthalpy no less than -30 kcal/mol?
Result: met

Request: Entry GACTTAGCGAAAGCTGTC (((..(((....)))))) : is its folding enthalpy no less than -30 kcal/mol?
Result: met

Request: Entry GCTCGGCGAAAGCGGGGC ((.(.((....)).).)) : is its folding enthalpy no less than -30 kcal/mol?
Result: met

Request: Entry GTACCTCGAAAGAGATAC (((.(((....))).))) : is its folding enthalpy no less than -30 kcal/mol?
Result: met

Request: Entry GATCACAAGGTGATC ((((((...)))))) : is its folding enthalpy no less than -30 kcal/mol?
Result: not met

Request: Entry GATCGCTGGCGCGATC ((((((....)))))) : is its folding enthalpy no less than -30 kcal/mol?
Result: not met

Request: Entry GCCGAGCGAAAGCACAGC ((.(.((....)).).)) : is its folding enthalpy no less than -30 kcal/mol?
Result: met

###

# ASSAY_PROCEDURE: folding enthalpy; higher = less favourable; fluorescence melt of hairpins on a sequencing array, two-state fit
# ASSAY_CONDITIONS: sodium 0.088 M
Each entry below lists one item and its recorded folding enthalpy value.
Give the quantity in kcal/mol, number only.

Some solved entries appear below for comparison.
{"columns": ["SEQUENCE", "folding enthalpy (kcal/mol)"],
 "data": [
  ["GTGGATGAAAATCCAC ((((((....))))))", -33.9],
  ["GGAATCGAAAGATACTCC ((((((....)))..)))", -9.63]
]}

Per the records, this sequence ( GATAACGAAAGTTCATC ((((((....))).))) ) has folding enthalpy equal to -10.4

###

# ASSAY_PROCEDURE: folding enthalpy; higher = less favourable; fluorescence melt of hairpins on a sequencing array, two-state fit
# ASSAY_CONDITIONS: sodium 0.088 M
PROPERTY_MEASURED: folding enthalpy (kcal/mol)
Give the quantity in kcal/mol, number only.

Per the records, this sequence ( GGGCAGGGAAACCTACCC (((.(((....))).))) ) has folding enthalpy equal to -29.2

Per the records, this sequence ( GAGGACGAAAGTCCCTC ((((((....))).))) ) has folding enthalpy equal to -11.3

Per the records, this sequence ( GATCTATGAGTAGATC ((((((....)))))) ) has folding enthalpy equal to -40.3

Per the records, this sequence ( GCATTTCGAAAGAATGC (((.(((....)))))) ) has folding enthalpy equal to -30.5

###

# ASSAY_PROCEDURE: folding enthalpy; higher = less favourable; fluorescence melt of hairpins on a sequencing array, two-state fit
# ASSAY_CONDITIONS: sodium 0.088 M
PROPERTY_MEASURED: folding enthalpy (kcal/mol)
Give the quantity in kcal/mol, number only.

Some solved entries appear below for comparison.
{"columns": ["SEQUENCE", "UNIT_OF_MEASUREMENT", "folding enthalpy"],
 "data": [
  ["GATCATACCCATGATC ((((((....))))))", "kcal/mol", -38.6],
  ["GATCCGGTTGCGGATC ((((((....))))))", "kcal/mol", -40.3],
  ["GATCTTGAAAAGATC ((((((...))))))", "kcal/mol", -33.5],
  ["GCTACGCGAAAGCGAAGC (((.(((....))).)))", "kcal/mol", -36.7]
]}

Per the records, this sequence ( GGTGTGGGAAACTACGCC ((.((.(....).)).)) ) has folding enthalpy equal to -29.6

Per the records, this sequence ( GAGTAAGCGAAAGCTCTC (((..(((....)))))) ) has folding enthalpy equal to -13.4

Per the records, this sequence ( GCGATTGCTCGC ((((....)))) ) has folding enthalpy equal to -14.3

###

# ASSAY_PROCEDURE: folding enthalpy; higher = less favourable; fluorescence melt of hairpins on a sequencing array, two-state fit
# ASSAY_CONDITIONS: sodium 0.088 M
PROPERTY_MEASURED: folding enthalpy
Report as: number unit

Some solved entries appear below for comparison.
{"columns": ["SEQUENCE", "PROPERTY_MEASURED", "RESULT"],
 "data": [
  ["GCGGTCGAAAGACCACGC ((((((....)))..)))", "folding enthalpy", "-71.1 kJ/mol"],
  ["GCGGCCCTCCGC ((((....))))", "folding enthalpy", "-111 kJ/mol"],
  ["GGAACCGAAAGGTCATCC ((((((....)))..)))", "folding enthalpy", "-45.2 kJ/mol"],
  ["GCCACCGAAAGGTAGGGC ((((((....)))..)))", "folding enthalpy", "-115 kJ/mol"],
  ["GCGATGGGAAACTGTCGC ((((..(....)..))))", "folding enthalpy", "-198 kJ/mol"],
  ["CGCACGCGGAAACGCGCG (((..(((....))))))", "folding enthalpy", "-40.2 kJ/mol"],
  ["CGGATCGGAAACGAACCG (((.(((....))).)))", "folding enthalpy", "-179 kJ/mol"],
  ["GTGGACGAAAGTCCCAC ((((((....))).)))", "folding enthalpy", "-50.7 kJ/mol"]
]}

Per the records, this sequence ( GCATAGACGAAAGTCTGC (((..(((....)))))) ) has folding enthalpy equal to -64.9 kJ/mol

Per the records, this sequence ( GATCTCTACGAGATC ((((((...)))))) ) has folding enthalpy equal to -167 kJ/mol

###

# ASSAY_PROCEDURE: folding enthalpy; higher = less favourable; fluorescence melt of hairpins on a sequencing array, two-state fit
# ASSAY_CONDITIONS: sodium 0.088 M
Each entry below lists one item and its recorded folding enthalpy value.
Report as: number unit

{"columns": ["SEQUENCE", "folding enthalpy"],
 "data": [
  ["GCTACCGAAAGGTGAAGC ((((((....)))..)))", "-19 kcal/mol"],
  ["GATCATGGCTATGATC ((((((....))))))", "-40.6 kcal/mol"],
  ["CGAAGCGGAAACGCCTCG (((.(((....))).)))", "-23.8 kcal/mol"],
  ["GGATTTGGAAACAAATTC (.(((((....))))).)", "-28.1 kcal/mol"],
  ["GGGACCGGAAACGATCCC ((((.((....)).))))", "-45.8 kcal/mol"],
  ["GATCGGAACACCGATC ((((((....))))))", "-39.9 kcal/mol"],
  ["GGTGTCGGAAACAACACC (((((.(....).)))))", "-36.1 kcal/mol"],
  ["GAATTCCGAAAGGAGTTC (((.(((....))).)))", "-33.6 kcal/mol"]
]}

Per the records, this sequence ( GATCGGTTTACCGATC ((((((....)))))) ) has folding enthalpy equal to -37.4 kcal/mol

Per the records, this sequence ( GCGGCGCGAAAGCCCGGC ((.(.((....)).).)) ) has folding enthalpy equal to -14.6 kcal/mol

Per the records, this sequence ( GCTAGAGGAAACTCCAGC (((.(((....))).))) ) has folding enthalpy equal to -22.2 kcal/mol

Per the records, this sequence ( GGTCAGGGAAACCTGACC (((((((....))))))) ) has folding enthalpy equal to -36.6 kcal/mol
